Sourced from patent US9156801B2

System: RKO cell line
Test: solid tumor cell growth inhibition, MTT
Assay type: cell-based
Conditions: Homo sapiens, 72 h
property: IC50

Worked set:
COC(=O)[C@]12CCC(C)(C)CC1C1=CCC3[C@@]4(C)CC(C(=O)NCCc5ccccn5)C(=O)C(C)(C)C4CC[C@@]3(C)[C@]1(C)CC2 (stereo partly drawn) ... > 16 µg/mL
COC(=O)[C@]12CCC(C)(C)CC1C1=CCC3[C@@]4(C)CC(C(=O)NCCC(C)C)C(=O)C(C)(C)C4CC[C@@]3(C)[C@]1(C)CC2 (stereo partly drawn) ... > 16 µg/mL

Prompt line: Provide measured IC50 on RKO cell line for CCOCCNC(=O)C1C[C@@]2(C)C(CC[C@]3(C)C2CC=C2C4CC(C)(C)CC[C@]4(C(=O)OC)CC[C@]23C)C(C)(C)C1=O (stereo partly drawn) please.
Response line: > 16 µg/mL

---

System: U87 MG cell line
Experiment: solid tumor cell growth inhibition, MTT
Format: cell-based
Settings: Homo sapiens, U-87 MG, 16 μg/mL compound, 72 h, read-out: IR (cell proliferation inhibition rate)
Form field: inhibition at 16 µg/mL (one value per entry).
Form entry: value (%) — number only.

Worked set:
CCN(CC)CCNC(=O)C1C[C@@]2(C)C(CC[C@]3(C)C2CC=C2C4CC(C)(C)CC[C@]4(C(=O)O)CC[C@]23C)C(C)(C)C1=O (some centres unmarked) [BS-OA-106] ... 7.2
COC(=O)[C@]12CCC(C)(C)C[C@H]1C1=CC[C@@H]3[C@@]4(C)CC(C(=O)NCCN5CCOCC5)C(=O)C(C)(C)[C@@H]4CC[C@@]3(C)[C@]1(C)CC2 (some centres unmarked) [BS-OA-059] ... 30.6
COC(=O)[C@]12CCC(C)(C)CC1C1=CCC3[C@@]4(C)CC(C(=O)NCCCN5CCOCC5)C(=O)C(C)(C)C4CC[C@@]3(C)[C@]1(C)CC2 (some centres unmarked) [BS-OA-037] ... 92.6

Prompt line: Give recorded inhibition at 16 µg/mL. CCN(CC)CCCNC(=O)C1C[C@@]2(C)C(CC[C@]3(C)C2CC=C2C4CC(C)(C)CC[C@]4(C(=O)O)CC[C@]23C)C(C)(C)C1=O (some centres unmarked) [BS-OA-108]
Response line: 18.5

Prompt line: Give recorded inhibition at 16 µg/mL. COC(=O)[C@]12CCC(C)(C)CC1C1=CCC3[C@@]4(C)CC(C(=O)NCCc5ccccn5)C(=O)C(C)(C)C4CC[C@@]3(C)[C@]1(C)CC2 (some centres unmarked) [BS-OA-032]
Response line: 30.4

---

Form field: IC50 (one value per entry).
System: CNE cell line
Assay: solid tumor cell growth inhibition, MTT
Format: cell-based
Details: Homo sapiens, 72 h

CCN(CC)CCCNC(=O)C1C[C@]2(C)[C@H]3CC=C4[C@@H]5CC(C)(C)CC[C@]5(C(=O)OC)CC[C@@]4(C)[C@]3(C)CC[C@H]2C(C)(C)C1=O (stereo partly drawn) ... 3.64 µg/mL
COCCCNC(=O)C1C[C@]2(C)[C@H]3CC=C4[C@@H]5CC(C)(C)CC[C@]5(C(=O)OC)CC[C@@]4(C)[C@]3(C)CC[C@H]2C(C)(C)C1=O (stereo partly drawn) ... > 16 µg/mL

Kindly consider the entry below.
Prompt line: Give recorded IC50. COC(=O)[C@]12CCC(C)(C)C[C@H]1C1=CC[C@@H]3[C@@]4(C)CC(C(=O)NCC5CC5)C(=O)C(C)(C)[C@@H]4CC[C@@]3(C)[C@]1(C)CC2 (stereo partly drawn)
Response line: > 16 µg/mL
